Tested on: peptide-forming enzyme (Mono S fraction enzyme)
method summary: Enzyme substrate specificity (1)-(10), (13), (14): peptide production
Type: biochemical, Empedobacter brevis
applied conditions: L or D amino acid methyl ester hydrochloride 100 mM, L or D amino acid 150 mM, pH 9.0, 25° C., 3 hours
Where a SMILES comes first, the peptide text is derived from it. [ ]: non-standard residue; d: D form.
outcome measure: Formed peptide (mM)
Kindly provide the numeric value in mM only, without the unit symbol.

In plain terms, C[C@@H](O)[C@H](N)C(=O)N[C@H](CO)C(=O)O [L-Thr-D-Ser] (H-Thr-[dS]-OH) has a documented Formed peptide of 6.9

In plain terms, N[C@H](CO)C(=O)N[C@H](CO)C(=O)O [D-Ser-D-Ser] (H-[dS]-[dS]-OH) has a documented Formed peptide of 2.5

In plain terms, CSCC[C@@H](N)C(=O)N[C@H](CO)C(=O)O [D-Met-D-Ser] (H-[dM]-[dS]-OH) has a documented Formed peptide of 2.7

In plain terms, C[C@H](N)C(=O)N[C@H](CO)C(=O)O [L-Ala-D-Ser] (H-Ala-[dS]-OH) has a documented Formed peptide of 5.4

In plain terms, N[C@H](CO)C(=O)N[C@@H](CO)C(=O)O [D-Ser-L-Ser] (H-[dS]-Ser-OH) has a documented Formed peptide of 3.3

In plain terms, CC(C)[C@@H](N)C(=O)N[C@@H](CO)C(=O)O [D-Val-L-Ser] (H-[dV]-Ser-OH) has a documented Formed peptide of 0.6

In plain terms, N[C@@H](CO)C(=O)N[C@H](CO)C(=O)O [L-Ser-D-Ser] (H-Ser-[dS]-OH) has a documented Formed peptide of 16.2

In plain terms, CC(C)[C@@H](N)C(=O)N[C@H](CO)C(=O)O [D-Val-D-Ser] (H-[dV]-[dS]-OH) has a documented Formed peptide of 0.5

In plain terms, CC(C)[C@H](N)C(=O)N[C@H](CO)C(=O)O [L-Val-D-Ser] (H-Val-[dS]-OH) has a documented Formed peptide of 1.4

In plain terms, C[C@H](O)[C@@H](N)C(=O)N[C@@H](CO)C(=O)O [D-Thr-L-Ser] (H-[dT]-Ser-OH) has a documented Formed peptide of 1.0

In plain terms, C[C@@H](N)C(=O)N[C@@H](CO)C(=O)O [D-Ala-L-Ser] (H-[dA]-Ser-OH) has a documented Formed peptide of 20.3

In plain terms, CSCC[C@@H](N)C(=O)N[C@@H](CO)C(=O)O [D-Met-L-Ser] (H-[dM]-Ser-OH) has a documented Formed peptide of 5.1

In plain terms, C[C@@H](N)C(=O)N[C@@H](CCC(N)=O)C(=O)O [D-Ala-L-Gln] (H-[dA]-Gln-OH) has a documented Formed peptide of 69.3

In plain terms, C[C@H](N)C(=O)N[C@H](CCC(N)=O)C(=O)O [L-Ala-D-Gln] (H-Ala-[dQ]-OH) has a documented Formed peptide of 0.3

In plain terms, C[C@@H](N)C(=O)N[C@H](CO)C(=O)O [D-Ala-D-Ser] (H-[dA]-[dS]-OH) has a documented Formed peptide of 0.2

In plain terms, CSCC[C@H](N)C(=O)N[C@H](CO)C(=O)O [L-Met-D-Ser] (H-Met-[dS]-OH) has a documented Formed peptide of 1.9

In plain terms, C[C@H](O)[C@@H](N)C(=O)N[C@H](CO)C(=O)O [D-Thr-D-Ser] (H-[dT]-[dS]-OH) has a documented Formed peptide of 1.1

* * *

System: peptide-forming enzyme (Mono S fraction enzyme)
method summary: Enzyme substrate specificity (1)-(10), (13), (14): peptide production
Format: biochemical, Empedobacter brevis
applied conditions: carboxy component 100 mM, 200 mM L-glutamine, pH 9.0, 25° C., 2 hours
Exercise: state measured L-Ala-L-Gln formed for each of the molecules provided.

In plain terms, CCOC(=O)[C@H](C)N.Cl [L-Alanine ethyl ester.HCl] has a documented L-Ala-L-Gln formed of 91.5 mM

In plain terms, C[C@H](N)C(=O)OC(C)(C)C.Cl [L-Alanine-t-butyl ester.HCl] has a documented L-Ala-L-Gln formed of 7.5 mM

In plain terms, COC(=O)[C@H](C)N.Cl [L-Alanine methyl ester.HCl, L-alanine methyl ester hydrochloride] has a documented L-Ala-L-Gln formed of 84.3 mM

In plain terms, CC(C)OC(=O)[C@H](C)N.Cl [L-Alanine isopropyl ester.HCl] has a documented L-Ala-L-Gln formed of 78.9 mM

* * *

System: peptide-forming enzyme (Mono S fraction enzyme)
method summary: Enzyme substrate specificity (1)-(10), (13), (14): peptide production
Type: biochemical, Empedobacter brevis
Parameters: key: +: those peptides for which production was confirmed but which were unable to be quantified due to the absence of a standard; a trace amount
applied conditions: L-amino acid methyl ester hydrochloride 100 mM, 150 mM L-glutamine, pH 9.0, 25° C., 3 hours
Where a SMILES comes first, the peptide text is derived from it.
outcome measure: Formed peptide

INSERT INTO measurements (compound, observed_measurement) VALUES
  ('NC(=O)CC[C@H](NC(=O)[C@@H](N)CS)C(=O)O [L-CySH-L-Gln] (H-Cys-Gln-OH)', '+'),
  ('NC(=O)CC[C@H](NC(=O)[C@@H](N)CCC(=O)O)C(=O)O [α-L-Glu-L-Gln] (H-Glu-Gln-OH)', '+'),
  ('NC(=O)CC[C@H](NC(=O)CC[C@H](N)C(=O)O)C(=O)O', '+');

* * *

System: peptide-forming enzyme (Mono S fraction enzyme)
method summary: Enzyme substrate specificity (1)-(10), (13), (14): peptide production
Type: biochemical, Empedobacter brevis
applied conditions: 100 mM L-alanine methyl ester hydrochloride, L-amino acid 150 mM, pH 9.0, 25° C., 3 hours
Where a SMILES comes first, the peptide text is derived from it.
outcome measure: Formed peptide (mM)
Kindly provide the numeric value in mM only, without the unit symbol.

In plain terms, C[C@H](N)C(=O)N[C@@H](Cc1ccccc1)C(=O)O [L-Ala-L-Phe] has a documented Formed peptide of 74.4

In plain terms, CSCC[C@H](NC(=O)[C@H](C)N)C(=O)O [L-Ala-L-Met] (H-Ala-Met-OH) has a documented Formed peptide of 83.3

In plain terms, C[C@H](N)C(=O)N[C@@H](CCCCN)C(=O)O [L-Ala-L-Lys] (H-Ala-Lys-OH) has a documented Formed peptide of 71.8

In plain terms, C[C@H](N)C(=O)N[C@@H](C)C(=O)O [L-Ala-L-Ala] (H-Ala-Ala-OH) has a documented Formed peptide of 25.4

In plain terms, C[C@H](N)C(=O)NCC(=O)O [L-Ala-Gly] (H-Ala-Gly-OH) has a documented Formed peptide of 13.7

In plain terms, CC[C@H](C)[C@H](NC(=O)[C@H](C)N)C(=O)O [L-Ala-L-Ile] (H-Ala-Ile-OH) has a documented Formed peptide of 33.9

In plain terms, C[C@H](N)C(=O)N[C@@H](CC(=O)O)C(=O)O [L-Ala-L-Asp] (H-Ala-Asp-OH) has a documented Formed peptide of 2.1

* * *

System: enzyme derived from Sphingobacterium sp. strain FERM BP-8124 (SP-Sepharose HP fraction enzyme)
method summary: Enzyme substrate specificity (11), (12): peptide production
Format: biochemical
applied conditions: carboxy component 100 mM, amine component 150 mM, 0.33 units enzyme, pH 9.0, 25° C., 1.5 hours
Where a SMILES comes first, the peptide text is derived from it.
Assign class 1 whenever Produced peptide (Table 15-3) does not fall below 20 mM; assign class 0 whenever it does.

Q) Determine whether this compound has Produced peptide (Table 15-3) no lower than 20 mM: CC[C@H](C)[C@H](N)C(=O)N[C@@H](CCSC)C(=O)O [L-Ile-L-Met] (H-Ile-Met-OH)
A) class 0

Q) Determine whether this compound has Produced peptide (Table 15-3) no lower than 20 mM: C[C@@H](O)[C@H](N)C(=O)NCC(=O)O [L-Thr-Gly] (H-Thr-Gly-OH)
A) class 0

Q) Determine whether this compound has Produced peptide (Table 15-3) no lower than 20 mM: NCC(=O)N[C@@H](CO)C(=O)O [Gly-L-Ser] (H-Gly-Ser-OH)
A) class 1

Q) Determine whether this compound has Produced peptide (Table 15-3) no lower than 20 mM: CSCC[C@H](NC(=O)[C@@H](N)CCSC)C(=O)O [L-Met-L-Met] (H-Met-Met-OH)
A) class 1

Q) Determine whether this compound has Produced peptide (Table 15-3) no lower than 20 mM: CC(C)[C@H](N)C(=O)N[C@@H](Cc1ccccc1)C(=O)O [L-Val-L-Phe] (H-Val-Phe-OH)
A) class 0

Q) Determine whether this compound has Produced peptide (Table 15-3) no lower than 20 mM: NCC(=O)N[C@@H](Cc1cnc[nH]1)C(=O)O [Gly-L-His] (H-Gly-His-OH)
A) class 1

Q) Determine whether this compound has Produced peptide (Table 15-3) no lower than 20 mM: CC(C)[C@H](N)C(=O)N[C@@H](CO)C(=O)O [L-Val-L-Ser] (H-Val-Ser-OH)
A) class 1
